# System: Plasmodium berghei
# Assay explanation: Screen against P. berghei liver stage (PbLuc), transformed with Luciferase, at 10uM
# Assay type: functional, HepG2
# Condition label: tested at 10 uM
Among all 69,000 compounds or so, about 8,600 (12%) showed an effect of 50% or more. Only a selection was taken, and strong results are over-represented in it overall.
Rule: INHIBITION below 40% gives t, anything at or above gives f.

{"columns": ["Compound", "Label class"],
 "data": [
  ["CN(C)C(=O)N1C[C@H]2CN(Cc3cccc(F)c3)C(=O)[C@H]2C1", "t"],
  ["CC(=O)N1CCCCC1c1nnc2n1CCNC2 (stereo unspecified)", "t"],
  ["O=C(NC1CCCCC1)N1CCCC1c1nnc2n1CCNC2 (stereo unspecified)", "t"],
  ["Cc1cnc(C(=O)N2Cc3ncn(C)c3C(COCC(C)C)C2)cn1 (stereo unspecified)", "f"],
  ["CC(C)NC(=O)N1CCCCC1c1nnc2n1CCNC2 (stereo unspecified)", "f"]
]}

---

Below, each entry is listed alongside its reported INHIBITION.
# System: Plasmodium berghei
# Assay explanation: Screen against P. berghei liver stage (PbLuc), transformed with Luciferase, at 10uM
# Format: functional, HepG2
# Condition label: tested at 10 uM
Out of some 69,000 compounds screened, about 8,600 (12%) showed an effect of 50% or more. The list comes from a sample in which strong results are over-represented; it also holds close analogues and randomly drawn compounds.

{"columns": ["Compound", "Reading unit", "INHIBITION"],
 "data": [
  ["CCCc1cc(C(=O)N2C[C@H](O)[C@@H](N3CCCC3)C2)ccn1", "%", 55.2],
  ["COc1ccc(C(C)NCc2ccc(OC)c(OC)c2OC)cc1F (stereo unspecified)", "%", 67.1],
  ["CCCc1cc(C(=O)N2C[C@H]3CC=C(C)C[C@H]3C2)ccn1", "%", 6.66],
  ["COc1cc(CNC(C)c2cccc(Cl)c2)cc(OC)c1OC (stereo unspecified)", "%", 63.7],
  ["CCn1nc(C)c(CCNC(=O)C2CCCN(C3CCCC3)C2)c1C (stereo unspecified)", "%", -23.4],
  ["CCCc1cc(C(=O)N2CC(c3ccncc3)C2)ccn1", "%", 8.64]
]}

---

# System: Plasmodium berghei
# Assay explanation: Screen against P. berghei liver stage (PbLuc), transformed with Luciferase, at 10uM
# Assay type: functional, HepG2
# Condition label: tested at 10 uM
In all, about 69,000 compounds went through this assay and about 8,600 (12%) showed an effect of 50% or more. The sample holds strong results, similar compounds and a random draw of the others, so the mix is not that of the screen.
The threshold is inclusive: INHIBITION of exactly 30% counts as Yes; values below receive No.

{"columns": ["Compound", "Assay target", "Label class"],
 "data": [
  ["CC1(C)C[C@H](CCNC(=O)c2ccncc2)c2ccccc2O1", "Plasmodium berghei", "No"],
  ["CCc1nc(CN2CCCCC2C(N)=O)cs1 (stereo not drawn)", "Plasmodium berghei", "No"],
  ["COc1ccc(Cl)cc1NCC(=O)NCc1cccnc1OC", "Plasmodium berghei", "No"],
  ["Cc1cc(N2CCN(Cc3nccn3C)CC2)cc(C)n1", "Plasmodium berghei", "No"],
  ["CCN1CC2(CC1=O)CN(Cc1cnn(C)c1)CCN(C(C)=O)C2 (stereo not drawn)", "Plasmodium berghei", "No"],
  ["COCCN1C(=O)[C@@H]2CC[C@H]1CN(C(=O)CCc1n[nH]c(C)c1C)C2", "Plasmodium berghei", "Yes"],
  ["CC(C)=CCN1C[C@@H]2CC[C@H]1CN(C(=O)Cn1c(C)cc(C)nc1=O)C2", "Plasmodium berghei", "No"],
  ["CN(c1ccncn1)C1CC2(CCN(C(=O)CCc3cccs3)C2)C1 (stereo not drawn)", "Plasmodium berghei", "Yes"],
  ["CNC(=O)c1cccc(CN2CCN(C3=NCC(C)(C)S3)CC2)c1", "Plasmodium berghei", "No"],
  ["CCNc1ncc(C(=O)N2Cc3nc(C)[nH]c(=O)c3C2)cn1", "Plasmodium berghei", "No"],
  ["O=C1NCCN(CC2CC2)C12CCN(Cc1ccccc1)CC2", "Plasmodium berghei", "Yes"],
  ["COc1ccc(CN2C[C@@H](OCc3csc(C)n3)[C@H]3COC[C@H]32)cc1", "Plasmodium berghei", "No"],
  ["CN(c1ccncn1)C1CC2(CCN(C(=O)c3cccs3)C2)C1 (stereo not drawn)", "Plasmodium berghei", "Yes"],
  ["O=C(C1CCOCC1)N1CCO[C@H]2[C@H](Oc3cccnc3)CC[C@@H]21", "Plasmodium berghei", "No"],
  ["CN(C)CC1(O)CCCN(c2ccnc3c(C(F)(F)F)cccc23)C1 (stereo not drawn)", "Plasmodium berghei", "No"],
  ["O=C(CN1CCCC1)N1CCCC(CNS(=O)(=O)Cc2ccccc2)C1 (stereo not drawn)", "Plasmodium berghei", "Yes"],
  ["O=S(=O)(Cc1ccccc1)NCC1CCCN(Cc2cccs2)C1 (stereo not drawn)", "Plasmodium berghei", "Yes"],
  ["CN(C)C(=O)C1(c2cnccn2)CCCN1C(=O)Cc1ccccc1 (stereo not drawn)", "Plasmodium berghei", "No"],
  ["CS(=O)(=O)NCC1CCCN(C(=O)CCCc2ccccc2)C1 (stereo not drawn)", "Plasmodium berghei", "No"],
  ["Cc1nnc(NC(=O)c2c3c(nn2C2CCS(=O)(=O)C2)CCC3)s1 (stereo not drawn)", "Plasmodium berghei", "No"],
  ["Cc1nn2cc(CNc3nccc(CCC(F)(F)F)n3)nc2s1", "Plasmodium berghei", "No"],
  ["O=C(Cc1ccsc1)N1CCCC(CNS(=O)(=O)Cc2ccccc2)C1 (stereo not drawn)", "Plasmodium berghei", "Yes"],
  ["Cc1ccnc(NCc2cn3nc(C)sc3n2)n1", "Plasmodium berghei", "Yes"]
]}

These data points were gathered from ChEMBL document CHEMBL4513216.
